Exercise: state measured TGI for each of the molecules provided.
tested on: MDA-MB-468 breast; test: NCI tumour cell line growth inhibition, 48 h

Form: molecule = `C[C@H]1Oc2cc(cnc2N)-c2c(nn(C)c2C#N)CN(C)C(=O)c2ccc(F)cc21` ; TGI = > 100 µM

Form: molecule = `CS(=O)(=O)CCCn1c(=O)c(Oc2ccc(F)cc2F)cc2cnc(NC3CCOCC3)nc21` ; TGI = > 25 µM

Form: molecule = C=CC(=O)N1CCC(C2CCNc3c(C(N)=O)c(-c4ccc(Oc5ccccc5)cc4)nn32)CC1 (stereo unspecified) ; TGI = 8.52 µM

Form: molecule = `O=c1cc2oc3cc(O)c(O)cc3c(-c3ccccc3O)c-2cc1O` ; TGI = 42.6 µM

Form: molecule = COc1cccc2c1C(=O)c1c(O)c3c(c(O)c1C2=O)CC(O)(/C(C)=N/NC(=O)CCC(=O)N/N=C(\C)C1(O)Cc2c(O)c4c(c(O)c2C(OC2CC(N)C(O)C(C)O2)C1)C(=O)c1c(OC)cccc1C4=O)CC3OC1CC(N)C(O)C(C)O1 (stereo unspecified) ; TGI = 0.34 µM

Form: molecule = `CCCCCCNC(=O)c1nc(-c2ccccc2)oc1Cc1ccc(OP(=O)(O)O)cc1` ; TGI = 28.2 µM
